Each entry below carries its reported z-score.
experiment: DUSP6 inhibitors restoring Erk phosphorylation by chemical complementation, primary imaging in DUSP6-transfected HeLa (AID 609); conditions: HeLa MKP-3 transfected, phospho-Erk imaging KS statistic; measured here: cell density z-score; at 10 µM; cells stimulated with TPA for 15 min
value-type: z-score

INSERT INTO assay_data (compound, endpoint_value) VALUES
  ('Cc1cc(=O)oc(C)c1C(=O)NCCC1=CCCCC1', -1.14),
  ('COc1ccccc1-n1c(N)c(C(=O)NCC2CCCO2)c2nc3ccccc3nc21 (stereo unspecified)', 1.5),
  ('Cc1c(O)c(CN2CCCC2)cc2c1oc(=O)c1ccccc12', 0.99),
  ('Cc1sc(-n2c(C)ccc2C)c(C#N)c1C', -1.09),
  ('CCOC(=O)COn1c(=O)c(-c2ccc(OC)c(OC)c2)[n+]([O-])c2ccccc21', 0.722),
  ('O=C(NCCCNCc1ccccc1)/C(=N\O)c1ccccc1', -0.176),
  ('CC1(C)Cc2c(sc3nc(SCC(=O)NCc4ccco4)n(-c4ccccc4)c(=O)c23)CS1', -1.09),
  ('Cc1ccc(-n2ncc3c(N4CCCC4)ncnc32)c(C)c1', 0.427),
  ('CCCn1c(SCC(N)=O)nc2c(c1=O)C1(CCCC1)Cc1ccccc1-2', 0.28),
  ('Cc1cc(=O)oc(C)c1C(=O)NCC1CCCO1 (stereo unspecified)', 0.0605),
  ('Cc1c(C2CC(=O)N(c3ccccc3)C2=O)[nH]n(-c2ccccc2)c1=O (stereo unspecified)', -1.05);
